Quick list: % activity per entry.
Target: human calcium receptor (Homo sapiens, UniProt P41180, R990G)
Construct: expressed in transfected cells; host or cells: HEK 293
Sequence (P41180 20-1078 R990G): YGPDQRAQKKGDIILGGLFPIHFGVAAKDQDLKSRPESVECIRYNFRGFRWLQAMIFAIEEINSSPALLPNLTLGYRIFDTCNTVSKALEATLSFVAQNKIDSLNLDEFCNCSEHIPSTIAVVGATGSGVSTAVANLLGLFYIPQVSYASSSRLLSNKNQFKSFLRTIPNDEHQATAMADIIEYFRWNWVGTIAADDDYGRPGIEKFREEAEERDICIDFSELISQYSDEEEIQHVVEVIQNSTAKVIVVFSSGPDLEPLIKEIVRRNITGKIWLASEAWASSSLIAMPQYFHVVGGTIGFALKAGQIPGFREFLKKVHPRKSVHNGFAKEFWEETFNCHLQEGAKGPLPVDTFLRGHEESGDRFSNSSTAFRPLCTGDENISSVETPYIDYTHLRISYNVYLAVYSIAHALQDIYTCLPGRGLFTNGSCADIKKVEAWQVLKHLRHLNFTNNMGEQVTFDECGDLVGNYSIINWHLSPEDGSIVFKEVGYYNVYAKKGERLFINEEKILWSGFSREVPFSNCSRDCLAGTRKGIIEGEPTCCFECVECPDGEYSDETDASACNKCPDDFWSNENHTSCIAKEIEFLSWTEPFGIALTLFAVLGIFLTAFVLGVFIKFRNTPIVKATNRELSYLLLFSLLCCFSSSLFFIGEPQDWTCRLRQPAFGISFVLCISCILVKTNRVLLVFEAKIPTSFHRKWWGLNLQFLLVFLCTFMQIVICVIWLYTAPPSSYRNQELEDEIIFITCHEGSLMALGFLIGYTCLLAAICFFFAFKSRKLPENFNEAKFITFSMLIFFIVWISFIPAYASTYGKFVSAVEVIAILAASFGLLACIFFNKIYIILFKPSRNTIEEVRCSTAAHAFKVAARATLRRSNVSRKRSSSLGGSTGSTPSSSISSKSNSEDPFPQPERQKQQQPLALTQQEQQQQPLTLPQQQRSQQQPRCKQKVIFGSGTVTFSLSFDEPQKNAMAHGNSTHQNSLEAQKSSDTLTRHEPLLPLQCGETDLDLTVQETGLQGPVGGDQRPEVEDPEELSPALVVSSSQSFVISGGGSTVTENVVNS
Assay: increases in [Ca^2+ ]i in HEK-293 cells expressing the human calcium receptor (fura-2 loaded HEK 293/pHuPCaR4.0 cells), % activity
Format: cell-based
Details: 33 ng/mL
quantity: % activity (%)

{"columns": ["molecule", "tested-on", "unit-descriptor", "endpoint-result"],
 "data": [
  ["C[C@@H](NCCCc1cccc(C(F)(F)F)c1)c1cccc2ccccc12 [Compound 22J]", "human calcium receptor (Homo sapiens, UniProt P41180, R990G)", "%", 71],
  ["COc1ccc(CN[C@H](C)c2cccc3ccccc23)c(C)c1C [Compound 17L]", "human calcium receptor (Homo sapiens, UniProt P41180, R990G)", "%", 78],
  ["CCOc1ccc(CN[C@H](C)c2cccc3ccccc23)cc1 [Compound 16W]", "human calcium receptor (Homo sapiens, UniProt P41180, R990G)", "%", 73],
  ["C[C@H](CCc1ccccc1)N[C@H](C)c1cccc2ccccc12 [Compound 21F]", "human calcium receptor (Homo sapiens, UniProt P41180, R990G)", "%", 85]
]}

* * *

Target: human calcium receptor (Homo sapiens, UniProt P41180, R990G)
Construct: expressed in transfected cells; host or cells: HEK 293
Assay: increases in [Ca^2+ ]i in HEK-293 cells expressing the human calcium receptor (fura-2 loaded HEK 293/pHuPCaR4.0 cells), % activity
Assay type: cell-based
Conditions: 3300 ng/mL
Quick list: % activity per entry.

{"columns": ["compound", "unit-descriptor", "% activity"],
 "data": [
  ["COc1cccc(C(C)NC(C)c2ccc(C(C)(C)C)cc2)c1 (mixture of isomers) [Compound 13G]", "%", 111],
  ["COc1ccc([C@@H](C)N[C@@H](C)c2cccc3ccccc23)cc1C [Compound 25W]", "%", 95],
  ["CCc1ccc(C(C)NCc2ccc(OC)c(C)c2)cc1 (stereo not shown) [Compound 24A]", "%", 122],
  ["COc1cccc([C@@H](C)NCc2cccc(Oc3ccccc3)c2)c1 [Compound 12H]", "%", 114]
]}

* * *

Biological target: human calcium receptor (Homo sapiens, UniProt P41180, R990G)
Construct: expressed in transfected cells; host or cells: HEK 293
Experiment: increases in [Ca^2+ ]i in HEK-293 cells expressing the human calcium receptor (fura-2 loaded HEK 293/pHuPCaR4.0 cells), % activity
Type: cell-based
Conditions: 33 ng/mL
quantity: % activity (%)

{"columns": ["compound", "tested-on", "quantity", "unit-descriptor", "endpoint-result"],
 "data": [
  ["COc1cccc([C@@H](C)N[C@@H](C)CCc2cccc(C(F)(F)F)c2)c1 [Compound 21X]", "human calcium receptor (Homo sapiens, UniProt P41180, R990G)", "% activity", "%", 51],
  ["CC(NC(C)c1ccc2ccccc2c1)c1ccc(C(C)(C)C)cc1 (mixture of isomers) [Compound 13I]", "human calcium receptor (Homo sapiens, UniProt P41180, R990G)", "% activity", "%", 3],
  ["COc1ccc(CCCN[C@H](C)c2cccc(OC)c2)cc1 [Compound 20I]", "human calcium receptor (Homo sapiens, UniProt P41180, R990G)", "% activity", "%", 52],
  ["COc1cccc([C@@H](C)NCCCc2ccc(OC(F)(F)F)cc2)c1 [Compound 21N]", "human calcium receptor (Homo sapiens, UniProt P41180, R990G)", "% activity", "%", 42],
  ["CC(NC(C)c1cccc2ccccc12)c1ccc2c(c1)-c1ccccc1-2 (centres unmarked) [Compound 10R]", "human calcium receptor (Homo sapiens, UniProt P41180, R990G)", "% activity", "%", 42],
  ["COc1cccc([C@@H](C)NCCc2ccccc2)c1 [Compound 25Q]", "human calcium receptor (Homo sapiens, UniProt P41180, R990G)", "% activity", "%", 77],
  ["CC(C)Oc1cccc([C@@H](C)NCCCc2ccccc2Cl)c1 [Compound 21T]", "human calcium receptor (Homo sapiens, UniProt P41180, R990G)", "% activity", "%", 53],
  ["COc1ccc([C@@H](C)N[C@H](C)c2cccc3ccccc23)cc1C.Cl [Compound 17P]", "human calcium receptor (Homo sapiens, UniProt P41180, R990G)", "% activity", "%", 86]
]}
